- SYSTEM_TESTED: human CCR6 (Homo sapiens)
- Construct: expressed in transfected cells; host or cells: HEK-293
- Sequence (P51684 whole entry): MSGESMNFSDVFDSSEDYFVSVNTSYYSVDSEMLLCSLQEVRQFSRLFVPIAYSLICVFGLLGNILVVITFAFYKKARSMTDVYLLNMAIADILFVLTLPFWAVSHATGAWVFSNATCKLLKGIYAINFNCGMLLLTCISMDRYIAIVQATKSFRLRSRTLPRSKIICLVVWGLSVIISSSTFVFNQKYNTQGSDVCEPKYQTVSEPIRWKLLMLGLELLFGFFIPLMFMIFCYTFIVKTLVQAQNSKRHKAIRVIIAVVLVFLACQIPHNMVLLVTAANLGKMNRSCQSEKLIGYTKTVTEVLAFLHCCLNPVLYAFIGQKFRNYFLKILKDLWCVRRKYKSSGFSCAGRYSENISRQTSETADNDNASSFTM
- MEASUREMENT_PROTOCOL: FLIPR assay (inhibition of CCL20-induced calcium signal)
- Type: cell-based
- PARTICULARS: HEK-293 cells expressing human CCR6; mean values where determined several times; read-out: FLIPR IC50
pIC50: −log10 of the molar value.
METRIC_NAME: pIC50

> print(dat)
                                   molecule              system.tested  readout.value
1  CC(C)c1ccc([C@](O)(c2cncc(-c3noc(C(C)(C)O)n3)c2)C2(C)CN(C)C2)cc1  human CCR6 (Homo sapiens)           7.24
2  CC(C)c1ccc([C@](O)(c2cncc(-c3noc(CC4(O)CCC4)n3)c2)C2(C)CN(C)C2)cc1  human CCR6 (Homo sapiens)           7.22
3  Cc1cc(C(C)(O)CCc2cncc(C(O)(c3ccc(C(C)C)cc3)C3(C)CN(C)C3)c2)ncn1 (stereo not shown)  human CCR6 (Homo sapiens)           6.74
4  [2H]C([2H])([2H])C(=O)NC(C)(C)Cc1nc(-c2cncc([C@@](O)(c3ccc(C(C)C)cc3)C3(C)CN(C)C3)c2)no1  human CCR6 (Homo sapiens)           6.68
